Recorded OD450 at 0.01 nM for the following binders
system: T1, human CD19 exon1-3-His tag protein (human, UniProt P15391 20-186, limits assumed)
T1 construct: membrane-distal part of the extracellular region, made in HEK293E cells; not shown: His tag
T1 sequence (looked up): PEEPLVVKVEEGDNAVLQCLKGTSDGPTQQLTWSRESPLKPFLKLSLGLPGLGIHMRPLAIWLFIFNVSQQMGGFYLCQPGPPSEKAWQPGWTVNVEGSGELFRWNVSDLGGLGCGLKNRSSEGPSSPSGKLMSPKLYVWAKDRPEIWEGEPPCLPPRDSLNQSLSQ
assayText: ELISA, coated human CD19 exon 1-3-His
Write down the numeric answer in OD450 and omit the unit.

Below are worked cases with known answers.
binder: F3.121.4 (antibody, human IgG1, V domains shown, human-murine chimeric antibody, human IgG1 constant; also called chimeric antibody F3.121.4) VH: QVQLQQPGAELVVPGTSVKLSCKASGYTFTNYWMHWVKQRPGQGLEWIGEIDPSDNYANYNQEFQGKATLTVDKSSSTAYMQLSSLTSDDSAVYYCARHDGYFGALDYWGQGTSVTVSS VL: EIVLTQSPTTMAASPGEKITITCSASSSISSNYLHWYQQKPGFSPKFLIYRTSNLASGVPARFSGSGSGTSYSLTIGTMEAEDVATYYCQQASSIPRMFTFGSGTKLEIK
u: OD450
recordedResult: 0.05
--
binder: F3.121.4-L2H2 (antibody, mouse IgG1, kappa, V domains shown, humanized antibody of F3.121.4, VL2+VH2, murine IgG1 constant regions) VH: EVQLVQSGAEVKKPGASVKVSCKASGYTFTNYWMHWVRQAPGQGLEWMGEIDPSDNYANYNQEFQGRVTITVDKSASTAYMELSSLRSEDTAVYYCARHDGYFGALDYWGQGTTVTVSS VL: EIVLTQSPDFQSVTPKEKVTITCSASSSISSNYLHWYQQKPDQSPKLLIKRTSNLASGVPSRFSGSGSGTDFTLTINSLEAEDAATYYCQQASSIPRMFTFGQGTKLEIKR
u: OD450
recordedResult: 0.05
--
binder: F3.121.4-L1H2 (antibody, mouse IgG1, kappa, V domains shown, humanized antibody of F3.121.4, VL1+VH2, murine IgG1 constant regions) VH: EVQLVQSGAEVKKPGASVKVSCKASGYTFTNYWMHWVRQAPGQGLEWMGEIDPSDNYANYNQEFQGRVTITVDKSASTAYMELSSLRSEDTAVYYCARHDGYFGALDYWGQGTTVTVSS VL: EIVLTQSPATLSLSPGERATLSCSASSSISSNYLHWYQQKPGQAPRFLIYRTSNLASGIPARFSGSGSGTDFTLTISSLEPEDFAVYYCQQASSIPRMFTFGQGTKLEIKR
u: OD450
recordedResult: 0.05

Looking up F3.121.4-L1H1 (antibody, mouse IgG1, kappa, V domains shown, humanized antibody of F3.121.4, VL1+VH1, murine IgG1 constant regions) VH: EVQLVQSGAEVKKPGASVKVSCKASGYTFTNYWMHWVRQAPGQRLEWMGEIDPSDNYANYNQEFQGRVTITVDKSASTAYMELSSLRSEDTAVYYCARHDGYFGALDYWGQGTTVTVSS VL: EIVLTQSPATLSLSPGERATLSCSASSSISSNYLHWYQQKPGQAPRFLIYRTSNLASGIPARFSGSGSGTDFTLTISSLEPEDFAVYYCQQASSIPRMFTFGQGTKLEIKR , I found its OD450 at 0.01 nM recorded as 0.06
